# Procedure summary: Solubility (maximum soluble amount) in acetonitrile solution including 0.1 M TBAPF6
# Assay type: physicochemical
# Experimental conditions: acetonitrile solution including 0.1 M TBAPF6, organic solvent or mixture; maximum soluble amount in acetonitrile solution including TBAPF6 at 0.1 M
Assay metric: solubility (mM)

1: CN1c2ccccc2N(C)c2ccccc21 [Comparative Example 1, 5,10-dimethyl-5,10-dihydrophenazine, reference compound]
2: COCCN1c2ccccc2N(CCOC)c2ccccc21 [Example 1]
[in] Kindly identify the item with the lower solubility figure among these two: 1 and 2 Please reply using the label of the selected record.
[out] 1
(1: 50 mM, 2: 500 mM)

Reference source: patent US20220048869A1
